Tested on: UO-31 renal
Assay: NCI tumour cell line growth inhibition, 48 h
Quick list: TGI per entry.

Record excerpt, results attached:
MOLECULE	TGI
COc1cc2oc(=O)cc(C)c2c(OC)c1OC	> 100 µM
C[C@H](OC(=O)/C=C/c1ccc(O)c(O)c1)[C@H](C)OC(=O)/C=C/c1ccc(O)c(O)c1	21.9 µM
CC(C)N=C(NC#N)NS(=O)(=O)c1cnccc1NC1CCCCCCC1	> 100 µM
Cc1ccc(Sc2cc([N+](=O)[O-])cc(Sc3ccc(C)cc3)c2Sc2ccc(C)cc2)cc1	> 100 µM
OC1/C(=C/c2ccccc2)CNC/C1=C\c1ccccc1 (stereo not given)	> 100 µM

Requested read-out: TGI. Entry: "Cc1cc2c(C=O)[nH]nc2c(C#N)c1C" > 100 µM

Requested read-out: TGI. Entry: "O=C1CN2CCN(CC2)CC(=O)Nc2ccc(cc2)S(=O)(=O)c2ccc(cc2)NC(=O)CN2CCN(CC2)CC(=O)Nc2ccc(cc2)S(=O)(=O)c2ccc(cc2)N1" > 100 µM

Requested read-out: TGI. Entry: "CC(C)(C)OC(=O)/C=C/[C@@H](CCC(=O)/C=C/[C@H](/C=C\CCCC(=O)O)NC1(c2ccccc2)c2ccccc2-c2ccccc21)O[Si](C)(C)C(C)(C)C" 29.8 µM

Requested read-out: TGI. Entry: "COc1cccc(/C=N/[N-]C(N)=O)c1[O-].[Cu+2].c1ccncc1" 44.3 µM
